Values compiled from patent US8461170B2.

# reported IC50; entries follow
Biological target: human ALK (Homo sapiens)
Construct: GST (N); purchased Invitrogen, Carlsbad, Calif; (or prepared by AstraZeneca); host or cells: insect cells
Assay: ALK kinase mobility shift assay (Caliper LC3000)
Type: biochemical
Conditions: cumulative geometric means including test re-runs, some obtained since the priority filings; ATP 30 μM (Km) or 5 mM, not specified which; read-out: ALK Enzyme IC50 (μM)**
Write the number in µM without appending the unit.

CNC1CCN(c2ccc(Nc3ncc(Cl)c(-c4c[nH]c5ccccc45)n3)c(OC)c2)CC1(C)C (centres unmarked) = 0.136
COc1cc(N2CCC(N)C(F)C2)ccc1Nc1ncc(Cl)c(-c2c[nH]c3ccccc23)n1 (single isomer, unassigned) [Example 45] = 0.061
COc1cc(N2CCC(N)C(F)C2)ccc1Nc1ncc(Cl)c(-c2c[nH]c3ccccc23)n1 (single isomer, unassigned) [Example 50] = 0.022
COc1cc(N2CCC(N(C)C)C(C)(C)C2)ccc1Nc1ncc(Cl)c(-c2c[nH]c3ccccc23)n1 (centres unmarked) = 0.356
COc1cc(N2CCC(N3CCN(C)CC3)CC2)ccc1Nc1ncc(F)c(-c2c[nH]c3ccccc23)n1 = 0.079
COc1cc(N2CCC(N3CCN(C)CC3)CC2)ccc1Nc1ncc(C)c(-c2c[nH]c3ccccc23)n1 = 0.068
COc1cc(N2CCC(N(C)C)CC2)ccc1Nc1ncc(Cl)c(-c2c[nH]c3ccccc23)n1 = 0.021
COc1cc(P2(=O)CCC(N)CC2)ccc1Nc1ncc(Cl)c(-c2c[nH]c3ccccc23)n1 (single isomer, unassigned) = 0.083
COc1cc(P2(=O)CCC(N)CC2)ccc1Nc1ncc(C)c(-c2c[nH]c3ccccc23)n1 (single isomer, unassigned) [Example 44] = 0.02
COc1cc(N2CCC(N)CC2)ccc1Nc1ncc(Cl)c(-c2c[nH]c3ccccc23)n1 = 0.021

// next item, IC50 requested
Enquiry: What value of measured IC50 is listed for COc1cc(N2CCC(N)C(F)C2)ccc1Nc1ncc(Cl)c(-c2c[nH]c3ccccc23)n1 (single isomer, unassigned) [Example 46] ?
Return: 0.039

====

The following compounds are listed with their measured IC50 values.
Biological target: human ALK (Homo sapiens, UniProt Q9UM73)
Construct: GST (N); purchased Invitrogen, Carlsbad, Calif; (or prepared by AstraZeneca); host or cells: insect cells
Sequence (Q9UM73 1058-1620): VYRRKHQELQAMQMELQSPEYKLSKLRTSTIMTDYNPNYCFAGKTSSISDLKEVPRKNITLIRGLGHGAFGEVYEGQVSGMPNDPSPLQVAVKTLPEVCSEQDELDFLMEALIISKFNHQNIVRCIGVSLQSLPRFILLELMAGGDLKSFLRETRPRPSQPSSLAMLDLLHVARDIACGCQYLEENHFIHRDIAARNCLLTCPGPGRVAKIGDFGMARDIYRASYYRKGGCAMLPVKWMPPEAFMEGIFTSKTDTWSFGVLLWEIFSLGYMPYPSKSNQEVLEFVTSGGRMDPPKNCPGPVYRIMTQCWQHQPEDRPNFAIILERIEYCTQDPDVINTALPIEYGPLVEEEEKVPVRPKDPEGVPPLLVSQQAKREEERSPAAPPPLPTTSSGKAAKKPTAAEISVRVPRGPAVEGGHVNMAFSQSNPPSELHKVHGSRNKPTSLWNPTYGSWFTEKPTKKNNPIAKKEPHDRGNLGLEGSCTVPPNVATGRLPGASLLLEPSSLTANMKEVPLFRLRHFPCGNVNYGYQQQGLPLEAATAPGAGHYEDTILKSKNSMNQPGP
Assay: ALK kinase mobility shift assay (Caliper LC3000)
Type: biochemical
Settings: geometric means of multiple test runs, as presented in the priority filings; ATP 30 μM (Km) or 5 mM, not specified which; read-out: ALK Enzyme IC50 (μM)*
Description: ALK kinase activity was determined by measuring the kinase's ability to phosphorylate a tyrosine residue within a peptide substrate using a mobility shift assay on a Caliper LC3000 reader (Caliper Life Sciences, Hopkinton, Mass.), which measures fluorescence of the phosphorylated and unphosphorylated substrate and calculates a ratiometric value to determine percent turnover. […]
// return numeric value only (unit: µM, not printed)

COc1cc(N2CCC(N)C(C)(C)C2)ccc1Nc1ncc(Cl)c(-c2c[nH]c3ccccc23)n1 (stereo not shown) = 0.182

Enquiry: Recorded IC50 for COc1cc(N2CCC(N3CCN(C)CC3)CC2)c(C)cc1Nc1ncc(Cl)c(-c2c[nH]c3ccccc23)n1 with human ALK (Homo sapiens, UniProt Q9UM73), please?
Return: 0.024

Enquiry: Entry COc1cc(N2CCC(N(C)C)C(C)(C)C2)ccc1Nc1ncc(Cl)c(-c2c[nH]c3ccccc23)n1 (stereo not shown) , system human ALK (Homo sapiens, UniProt Q9UM73): what IC50 was measured?
Return: 0.343

Enquiry: What measured IC50 is associated with COc1cc(N2CCC(N(C)C)CC2)ccc1Nc1ncc(C)c(-c2c[nH]c3ccccc23)n1 on human ALK (Homo sapiens, UniProt Q9UM73)?
Return: 0.086

====

Target: human ALK (Homo sapiens)
Construct: GST (N); purchased Invitrogen, Carlsbad, Calif; (or prepared by AstraZeneca); host or cells: insect cells
Experiment: ALK kinase mobility shift assay (Caliper LC3000)
Type: biochemical
Conditions: geometric means of multiple test runs, as presented in the priority filings; ATP 30 μM (Km) or 5 mM, not specified which; read-out: ALK Enzyme IC50 (μM)*
Attribute: log10 IC50
Please be aware that the numbers have been log10-transformed from IC50 in µM.

Record excerpt, results attached:
COc1cc(N2CCC(N3CCNCC3)CC2)ccc1Nc1ncc(Cl)c(-c2c[nH]c3ccccc23)n1 [Example 3] = -1.15
COc1cc(N2CCC(N3CC[C@@H](F)C3)CC2)ccc1Nc1ncc(Cl)c(-c2c[nH]c3ccccc23)n1 [Example 22] = -1.24

Enquiry: What value of log10 IC50 has been reported for the following compound? CNC1CCN(c2ccc(Nc3ncc(Cl)c(-c4c[nH]c5ccccc45)n3)c(OC)c2)CC1 [Example 2]
Return: -1.64

Enquiry: Data request, read-out log10 IC50, for COc1cc(N2CCC(N)CC2)c(C)cc1Nc1ncc(C)c(-c2c[nH]c3ccccc23)n1 [Example 19]
Return: -1.28

Enquiry: Which log10 IC50 value is on record for COc1cc(N2CCC(N)CC2)ccc1Nc1ncc(Cl)c(-c2cn(C)c3ccccc23)n1 [Example 35] ?
Return: -1.01

Enquiry: Name the reported log10 IC50 value associated with the compound COc1cc(N2CCC(N3CCN(C)CC3)CC2)ccc1Nc1ncc(Cl)c(-c2c[nH]c3ccccc23)n1 [Example 10]
Return: -1.70

Enquiry: Fill in: log10 IC50 of COc1cc(N2CCC(N3CCN(C)CC3)CC2)ccc1Nc1ncc(C)c(-c2c[nH]c3ccccc23)n1 [Example 9] is ___
Return: -1.30

Enquiry: Quick one: log10 IC50 of COc1cc(N2CCC(N3CCN(C)CC3)CC2)c(F)cc1Nc1ncc(Cl)c(-c2c[nH]c3ccccc23)n1 [Example 39] ?
Return: -0.65

Enquiry: Sample COc1cc(N2CCC(NC3COC3)CC2)ccc1Nc1ncc(Cl)c(-c2c[nH]c3ccccc23)n1 [Example 26] — what was its log10 IC50?
Return: -0.95

Enquiry: What log10 IC50 value was documented for this compound, CNC1CCN(c2ccc(Nc3ncc(C)c(-c4c[nH]c5ccccc45)n3)c(OC)c2)CC1 [Example 4] ?
Return: -1.28

Enquiry: Returns the measured log10 IC50 for the input compound. Input: COc1cc(N2CCC(N3CCN(C)CC3)CC2)c(C)cc1Nc1ncc(C)c(-c2c[nH]c3ccccc23)n1 [Example 15]
Return: -0.84

Enquiry: For COc1cc(N2CCC(N)CC2)ccc1Nc1ncc(F)c(-c2c[nH]c3ccccc23)n1 [Example 41] , what is its reported log10 IC50?
Return: -1.17

Enquiry: What value of measured log10 IC50 is listed for COc1cc(N2CCC(N(C)C)CC2)c(C)cc1Nc1ncc(C)c(-c2c[nH]c3ccccc23)n1 [Example 17] ?
Return: -1.33

Enquiry: State the recorded log10 IC50 for this entry: COc1cc(N2CCC(N3CCN(C(C)C)CC3)CC2)ccc1Nc1ncc(Cl)c(-c2c[nH]c3ccccc23)n1 [Example 23]
Return: -1.55

Enquiry: Look up log10 IC50: COc1cc(N2CCC(N3CCN(C)CC3)CC2)c(Cl)cc1Nc1ncc(Cl)c(-c2c[nH]c3ccccc23)n1 [Example 40]
Return: -0.70

====

Quick reference for IC50 among some compounds
Target: human ALK (Homo sapiens)
Construct: GST (N); purchased Invitrogen, Carlsbad, Calif; (or prepared by AstraZeneca); host or cells: insect cells
Assay: ALK kinase mobility shift assay (Caliper LC3000)
Assay type: biochemical
Details: geometric means of multiple test runs, as presented in the priority filings; ATP 30 μM (Km) or 5 mM, not specified which; read-out: ALK Enzyme IC50 (μM)*
Please format your answer as a value with the unit trailing.

Enquiry: Quick one: IC50 for COc1cc(N2CCC(N3CCN(C)CC3)CC2)ccc1Nc1ncc(Br)c(-c2c[nH]c3ccccc23)n1 ?
Return: 0.033 µM

Enquiry: I have this compound here, COc1cc(N2CCC(N3CCN(C)CC3)CC2)ccc1Nc1ncc(C#N)c(-c2c[nH]c3ccccc23)n1 , and I need its recorded IC50.
Return: 0.024 µM

Enquiry: Report IC50 for COc1cc(N2CCC(N)CC2)ccc1Nc1ncc(Cl)c(-c2c[nH]c3ccccc23)n1 please.
Return: 0.015 µM

Enquiry: Fill in: IC50 of COc1cc(N2CCC(N3CCN(C)CC3)CC2)ccc1Nc1ncc(Cl)c(-c2cn(C)c3ccccc23)n1 is ___
Return: 0.148 µM

Enquiry: Record request: IC50 value, item COc1cc(N2CCC(N3CCN(C)CC3)CC2)ccc1Nc1ncc(F)c(-c2c[nH]c3ccccc23)n1
Return: 0.041 µM

Enquiry: Param item = CNC1CCN(c2ccc(Nc3ncc(Cl)c(-c4c[nH]c5ccccc45)n3)c(OC)c2)CC1(C)C (stereo not shown) ; retrieve measured IC50.
Return: 0.088 µM

Enquiry: Look up IC50: COc1cc(N2CCC(N3CC[C@@H](F)C3)CC2)c(C)cc1Nc1ncc(Cl)c(-c2c[nH]c3ccccc23)n1
Return: 0.39 µM
